Where do these numbers come from? They come from patent US12044680.

Molecular target: HLA-A*24:02 tetramer (human)
Quantity kind: % peptide exchange (%)
// units = %; emit number, no label

Binder	Reading
RVRAYTYSK (modifications not checked) [… (SEQ ID NO: 30)]	10.3
IYSTVASSL (modifications not checked) [… (SEQ ID NO: 27)]	101
RYMRWTYRF (modifications not checked) [… (SEQ ID NO: 31)]	101
LNMADKKET (modifications not checked) [… (SEQ ID NO: 28)]	10.3

Then there is this binder:
Dear colleague, I am looking for the recorded % peptide exchange of the following binder: GYSLKLSKL (modifications not checked) [… (SEQ ID NO: 25)]
37.9
